System: human leukemia HL-60 cells
assay-details: In vitro cytotoxicity, growth inhibition of human leukemia HL-60 cells
Type: cell-based
test-context: Homo sapiens, HL-60, read-out: IC50 for Cell growth Inhibition, HL60
quantity-kind: pIC50
Lab note — pIC50 values are minus log10 of concentrations in M.

Task: Report pIC50 for COc1cc(NS(C)(=O)=O)ccc1Nc1c2ccccc2nc2ccccc12 [m-AMSA]
Output: 7.10
